# Tested on: MS2 coat protein
# Protocol notes: apparent KD of MS2 coat protein, switch OFF state (with FMN for OFF switches, without FMN for ON switches); designed switch direction (-1 OFF switch, 1 ON switch): -1; higher = weaker reporter binding
# Measurement setup: FMN input: 0 or 200 uM; Eterna round: R93 (includes R88 designs)
Observable: apparent KD of MS2 coat protein (nM)

entry_sequence="AGGAAACAUGAGGAUCACCCAUGUGAGGAUAUUGAAAAGAAAAGAAAAGAAAGAAGAACAAGAAGGCACAAGAA [Tiu]" result_unit=nM experimental_value=31.5
entry_sequence="CUCAAGUAAGGAUAUUUAUGAAAUGAAGUGAAAGAAAAGAAAAAGAAGGUACAUGAGGAUCACCCAUGUUAGAA [EteRNA is fun!]" result_unit=nM experimental_value=19.6
entry_sequence="AAAAUACAUGAGGAUCACCCAUGUGAGGAUAUGCUAUGGAAAAAUAAAAUAAAACAUAGCAGAAGGCACAAAAA [Mat - Exclusion 1 - Eli mod - D41]" result_unit=nM experimental_value=73.4
entry_sequence="CCUAUGUGAGGAUAUAGCCACAUUACGAAUAAGUAGUGUGGCUAGAAGGCACAUGAGGAUCACCCAUGUAUGGG [Exclusion 4.8 (GC closing FMN)]" result_unit=nM experimental_value=15.6
entry_sequence="AAGAAGCUAGGAUAUACUAACGAAACUAAUGCAUAGAUAAAACAUGAGGAUCACCCAUGUAGAAGGAGCAGAAU [JR_Exc002_Sub014]" result_unit=nM experimental_value=20.6
entry_sequence="AGACAUACAGGAUAUACAUGGGAAAAAAAAAAAAAAAUUCUACAUGAGGAUCACCCAUGUAGAAGGGUAUGUCA [Ex2 Design 171: Random 1B]" result_unit=nM experimental_value=31.1
entry_sequence="AAAAAACAUGAGGAUCACCCAUGUGAGGAUAUCGCUAGUGAGACCCUAGUGUCAGUGAUGAGAAGGCACAUAAA [Brourd 613 Mod 8 - Jieux - Exclusion 1]" result_unit=nM experimental_value=32.5
entry_sequence="AUCAACCUAGGAUAUACAUGAGGAUCACCCAUGUACAGAUACAACAAGGGAAACACACGUAGAAGGAGGAAGAU [JR_Exc003_Sub1205]" result_unit=nM experimental_value=52.1
entry_sequence="AAAAAGGCAGGAUAUACAAAAAAAAAAAAAAAAAAGGAGGGACAUGAGGAUCACCCAUGUAGAAGGGCCAAAAA [Kai Theodor Erikson]" result_unit=nM experimental_value=121
entry_sequence="AAGGUACGAGGAUAUACAUAGAUACAGACACAUGUUCAUGUACAUGAGGAUCACCCAUGUAGAAGGCGUAUAUA [AJ 17]" result_unit=nM experimental_value=147
entry_sequence="AAGAAGCUAGGAUAUACUUGGGCAACAAAUAAACUAAUAUAACAUGAGGAUCACCCAUGUAGAAGGAGCAGAAA [JR_Exc002_Sub205]" result_unit=nM experimental_value=39.8
entry_sequence="AAUAAACAUGAGGAUCACCCAUGUCAGGAUAUGCAUCUAACCUAAUAACAUAAAUACAGCAGAAGGGACUAAUA [JR_Exc001_Sub602]" result_unit=nM experimental_value=25
entry_sequence="AAGAACCGAGGAUAUACUAAAGAAAUGAAAAGAAAUAAAGAACAUGAGGAUCACCCAUGUAGAAGGCGGAAGAA [Nebefawre]" result_unit=nM experimental_value=23.4

###

# Tested on: MS2 coat protein
# Protocol notes: apparent KD of MS2 coat protein; designed switch direction (-1 OFF switch, 1 ON switch): -1; higher = weaker reporter binding
# Measurement setup: Eterna round: R95; input ligand: none
Decide by apparent KD of MS2 coat protein: equal to or exceeding 60 nM means true (1), less means false (0).

entry_sequence="AGAAGUAGAAACCGAUCCUACAUGAGGAUCACCCAUGUAGCAAGACGUGCACGCGAAGCUCGUCAGACUACCAGAUG [salish99_TOv1_r3_017] (puzzle: Sensor v3, turn-off variant 1)" tested_target="MS2 coat protein" label_value="true (1)"
entry_sequence="AUAGAGUCAGGAUAUACAGGUGGAGGAGAGCAGCAUAAGGAGUAGAAGGGACAUGAGGAUCACCCAUGUAAGUG [JR_Exclu4_Sub059] (puzzle: Exclusion 4)" tested_target="MS2 coat protein" label_value="false (0)"
entry_sequence="AAGAAACAUGAGGAUCACCCAUGUGAGGAUAUGAAAAAGAAAAGAAAAGAAAGAAGUAUCAGAAGGCACAAAGG [salish99-ex1_r3_023] (puzzle: Exclusion 1)" tested_target="MS2 coat protein" label_value="true (1)"
entry_sequence="GUGAAGUGAGGAUAUAUGAGAGAGGCUGAACCGGACGAGAAGUAGAAGGCACAUGAGGAUCACCCAUGUAAGGG [JR_Exclu4_Sub024] (puzzle: Exclusion 4)" tested_target="MS2 coat protein" label_value="true (1)"
entry_sequence="AGUACUUACACGAAAGUGUUAGUACAAUAAGCUUGUGAAACAUGAGGAUCACCCAUGUCCUCAUAAGCUCGUCUUAU [salish99_TOv2_r3_016] (puzzle: Sensor v3, turn-off variant 2)" tested_target="MS2 coat protein" label_value="false (0)"

###

Below, each entry is listed with its recorded apparent KD of MS2 coat protein.
# System: MS2 coat protein
# Protocol notes: apparent KD of MS2 coat protein; designed switch direction (-1 OFF switch, 1 ON switch): -1; higher = weaker reporter binding
# Measurement setup: Eterna round: R95; input ligand: microRNA oligo, concentration not stated
Observable: apparent KD of MS2 coat protein (nM)

entry_sequence="UCGCUGCGAGGAUAUACAUGAGGAUCACCCAUGUACGGGUCCGGGUUUGAGUUGAUGAGUAGAAGGCGCAGUGA [JL Laongeedie mod 13] (puzzle: Exclusion 3)" observable="apparent KD of MS2 coat protein" experimental_value=79.2
entry_sequence="UUUAAUUUUUUUUUUUUACAAGCUUUUUGCUCGUCUUAUACAUGAGGAUCACCCAUGUGAGUGGAAGAUAAAUUAUC [JMF 11] (puzzle: Sensor v3, turn-off variant 2)" observable="apparent KD of MS2 coat protein" experimental_value=15
entry_sequence="ACCUUACAUGAGGAUCACCCAUGUCAGGAUAUCUCGGGCGGCUGAGGACCAGCCACCCAGAGAAGGGACGAGGA [Qumaraanan] (puzzle: Exclusion 1)" observable="apparent KD of MS2 coat protein" experimental_value=11.9
entry_sequence="AGAAAUGUCCAUGGCCGCAAGCUUUUUACUUGUCUUACCACAUGAGGAUCACCCAUGUGACAUGGACUCCUUAUGAU [Sensor v3, turn-off variant 2 (MOD of Oranla v.3)] (puzzle: Sensor v3, turn-off variant 2)" observable="apparent KD of MS2 coat protein" experimental_value=43
entry_sequence="CGUGUCUUUCACGUGAGUGGUGGGUGCAACAGGUGGGUUACAUGAGGAUCACCCAUGUCCUCACUUGCUCGUCUUUU [Grok-var2-04] (puzzle: Sensor v3, turn-off variant 2)" observable="apparent KD of MS2 coat protein" experimental_value=109

###

# Tested on: MS2 coat protein
# Protocol notes: apparent KD of MS2 coat protein; higher = weaker reporter binding
# Measurement setup: Eterna round: R107; input ligand: theophylline 2 mM
As shown below, each of these sequences has a reported apparent KD of MS2 coat protein value.
Observable: apparent KD of MS2 coat protein (µM)

entry_sequence=UGUAUGUGAUCUGAUACCAGAGUGACGCGAAAGCGACCUGAGGAUCACCCUGGUAAAUAACUCCCUUGGCAGCAGAUCGCAUACU result_unit=µM experimental_value=0.0178
entry_sequence="GCCGGGCCUUCGGCCGCCACUGAGAGAGUCGUGUGAACAUGAGGAUCACCCAUGUAAUAUAUAUACAGGACCGGGAGGGCCCGGC [4.V]" result_unit=µM experimental_value=0.0149
entry_sequence="ACGUGGAAAAUUUGUGGUGCUGCCUCAGGCCGAGGACCGGUACGGCCGCCACUCGUACAUGAGGAUCACCCAUGUCGAGUCACUG [Isanso]" result_unit=µM experimental_value=0.0474
entry_sequence="AGAUGAGUCACGGCCGCCACUCUUAUCAGGAUCACCCAUGGUUAACAUGAGGAUCACCCAUGUCUGAGGACCGGGUGAUGAGCAU [XTryp B #2]" result_unit=µM experimental_value=0.0253
entry_sequence="AGUUAUUCGAACAUGGUUGACGAGUGGCAACGAGGACCGGUACGGCCGCCACUCGAAUAAACAUGAGGAUCACCCAUGUACAAAU [T''-M'-T'-T-MS2 - Design 10]" result_unit=µM experimental_value=0.442
entry_sequence="ACAUGAGGAUCACCCAUGUGGCGUCUUGAUACCAGACCCGAAGUAGUCCCUUGGCAGCAACUACGUGAGGGUCGCCCAUGUGUAG [k'kmullin]" result_unit=µM experimental_value=0.0409
entry_sequence="UCAUGCAGGUCGGCCGCCACUACACACAUGAGGAUCACCCAUGUAGUUACUGGGUGAAGUGGCAGUAGGACCGGGACCUGCAUAC [Brourdmod09]" result_unit=µM experimental_value=0.342
entry_sequence="AAUGUAUGGCACAUGAGGAUCACCCAUGUGCGAGGACCGGUACGGCCGCCACUCGGUCCUGGGAACUUAUUACUAUACAUUAAUG [XTryp A #18]" result_unit=µM experimental_value=0.0131
entry_sequence="CGUUGGUGUGGAGACAUAUUGAUGACUGAAGGAGCGGGAAUAAACCCAGGUAGGUCGCAGAGAUCCACAUGAGGAUCACCCAUGU [!0.R]" result_unit=µM experimental_value=0.154
entry_sequence="UACAUAUGCCGAAGGAGCGCGAGAAGCAAAGCUUCAUUCCUCACAUGAGGAUCACCCAUGUCGCAGGUAGGUCGCGGCAUAUGUU [#15 Exclusion - Arginine B]" result_unit=µM experimental_value=0.0282
entry_sequence="AUCCACAGCCGAAGGAGCGCUAUAGGAUGACAUGAGGAUCACCCAUGUGUGUGAUGUGGAUAGCAGGUAGGUCGCGGAGUGGAUU [Exclusion - Arginine B (Freestyle 10)]" result_unit=µM experimental_value=0.0291
entry_sequence="AGUAGUUGACAAAAGUCAGCUACAAUUGAAGGAGCGGGUGGGUGCCCAGGUAGGUCGCAAUAACAUGAGGAUCACCCAUGUAUAA [ArgAS 2 #BothOrNeither #OpenEnded]" result_unit=µM experimental_value=0.0272
entry_sequence="UCGUUUUAGUCGGCCGCCACUGUAUGCAUGUUUAACAUGAGGAUCACCCAUGUCCCGUUCUAUUUCAGGACCGGGACGUAAUCGA [JR_SSTryptoB_Sub008]" result_unit=µM experimental_value=0.619
entry_sequence="GCGGACAUGAGGAUCACCCAUGUAAAUCCUCGAGGACCGGUACGGCCGCCACUCGAACGAGUGGCACGCGAGUGCGCACUCGCGU [aDa]" result_unit=µM experimental_value=0.0297
entry_sequence="AGCCGGAUUACGGCCGCCACUGUAGACGUGACGAAAGUCGCGUCAACAUGAGGAUCACCCAUGUACAGGACCGGGUGGUCCGGCG [Omei Trp B SS A v1]" result_unit=µM experimental_value=0.0178
entry_sequence="AACAUGAGGAUCACCCAUGUCUGAACUGAAGGAGCGCUAAAUAAGGCAGGUAGGUCGCGGAAUUUUGUGUAUAUAUAUAUAUGGG [9.G]" result_unit=µM experimental_value=0.025
entry_sequence="UUGACAUGAGGAUCACCCAUGUAAACUGAAGGAGCGUCGAAAAUGACAGGUAGGUCGCAGAAUAAUAAAGGUGAUGGUAAAUAUU [Exclusion Arginine AGF1]" result_unit=µM experimental_value=0.0296
entry_sequence=UGUAUGUGAUCUGAUACCAGCGUUGAUAACCUGAGGAUCACCCUGGUAAGGCGAAAGCCACGCCCUUGGCAGCAGAUCGCAUACU result_unit=µM experimental_value=0.0198
entry_sequence="CCAUGCAGGUCGGCCGCCACUACACACAUGAGGAUCACCCAUGUAGUUACUGGGUGAAGUGGCAGUAGGACCGGGACCUGCACAU [Brourdmod19]" result_unit=µM experimental_value=0.541
entry_sequence="UAUAUAUAUCACUAACUGUUCUUGAGGUCUCGAGGACCGGUACGGCCGCCACUCGGGCCGCCUCACAUGAGGAUCACCCAUGUCC [XTryp A #3]" result_unit=µM experimental_value=0.0894
entry_sequence="GCUUGGGUCGCACGGCCCUGGCGGUGCGAUACCAGCACGGUAACGUGCCCUUGGCAGCGCACAUGAGGAUCACCCAUGUGGUGCG [#1 Exclusion - Theophylline A Attempt #23 (HarryS)]" result_unit=µM experimental_value=0.264
entry_sequence="AGAUGAGUCACGGCCGCCACUCACUACAGGUUCACCCUUGGUUAACAUGAGGAUCACCCAUGUGGGAGGACCGGGUGAUGAGCAU [XTryp B #4]" result_unit=µM experimental_value=0.0256
entry_sequence="UCUAACAUGAGGAUCACCCAUGUGGGUUAUCGAGGACCGGUACGGCCGCCACUCGACCAGUAUAACUGGCUAGAACGUAUUUGAU [theeternabot_sameState_MS2_Trp_A_34]" result_unit=µM experimental_value=0.0494
entry_sequence="AGCGCAGGUCCUGAUACCAGAGACAUGAGGAUCACCCAUGUCCGGUGGUCCUGCCACAGGCUCCCUUGGCAGCAGGGCUUGUGCU [Exclusion Theophylline B GF9]" result_unit=µM experimental_value=0.0605
